Tested on: GAMG (Glioblastoma)
Assay: Bliss excess, mean over the matrix (fraction); higher = more synergy;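 note: after 72 h of two-drug dosing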
reported-property: Bliss excess

compound	system-tested	reported-property	observed
CN(C)CCCOc1ccc(-c2ccc3ncc4c(c3c2)n(C2CCOCC2)c(=O)n4C)cn1 [AZD0156] + C[C@@H]1COCCN1C2=NC(=NC(=C2)C3(CC3)[S@](=N)(=O)C)C4=C5C=CNC5=NC=C4 [AZD6738] (first compound max 1 µM, 7x7, partner max 10 µM)	GAMG (Glioblastoma)	Bliss excess	-0.0485
Cc1c2c(nn1C)CSCc1cc(n(C)n1)CSc1cc(c3ccccc3c1)OCCCc1c(C(=O)O)n(C)c3c-2c(Cl)ccc13 [AZD5991] + Cn1cnc2c(F)c(Nc3ccc(Br)cc3Cl)c(C(=O)NOCCO)cc21 [Selumetinib] (first compound max 1 µM, 7x7, partner max 3 µM)	GAMG (Glioblastoma)	Bliss excess	0.0368
C=CCn1c(=O)c2cnc(Nc3ccc(N4CCN(C)CC4)cc3)nc2n1-c1cccc(C(C)(C)O)n1 [AZD1775] + C[C@@H]1COCCN1C2=NC(=NC(=C2)C3(CC3)[S@](=N)(=O)C)C4=C5C=CNC5=NC=C4 [AZD6738] (first compound max 1 µM, partner max 10 µM)	GAMG (Glioblastoma)	Bliss excess	-0.0218
Cc1nc(-c2cn3c(n2)-c2ccc(-c4cnn(C(C)(C)C(N)=O)c4)cc2OCC3)n(C(C)C)n1 [Taselisib] + O=C(Nc1ccc2[nH]nc(-c3ccncc3)c2c1)[C@@H]1CCN(CC(=O)N2CCN(c3ccc(-c4ncccn4)cc3)CC2)C1 [SCH772984] (first compound max 10 µM, 7x7, partner max 5 µM)	GAMG (Glioblastoma)	Bliss excess	0.0241

* * *

Recorded Bliss excess by entry
System: NCI-H524 (Small Cell Lung Carcinoma)
Test: Bliss excess, mean over the matrix (fraction); higher = more synergy

compound	system-tested	Bliss excess
CC(=O)c1c(C)c2cnc(Nc3ccc(N4CCNCC4)cn3)nc2n(C2CCCC2)c1=O [Palbociclib] + Cc1c2c(nn1C)CSCc1cc(n(C)n1)CSc1cc(c3ccccc3c1)OCCCc1c(C(=O)O)n(C)c3c-2c(Cl)ccc13 [AZD5991] (first compound max 10 µM, 7x7, partner max 1 µM)	NCI-H524 (Small Cell Lung Carcinoma)	0.0019
Cc1nc(-c2cn3c(n2)-c2ccc(-c4cnn(C(C)(C)C(N)=O)c4)cc2OCC3)n(C(C)C)n1 [Taselisib] + O=C(Nc1ccc2[nH]nc(-c3ccncc3)c2c1)[C@@H]1CCN(CC(=O)N2CCN(c3ccc(-c4ncccn4)cc3)CC2)C1 [SCH772984] (first compound max 10 µM, 7x7, partner max 5 µM)	NCI-H524 (Small Cell Lung Carcinoma)	0.0464
CN(CCO)CC[C@H](CSc1ccccc1)Nc1ccc(S(=O)(=O)NC(=O)c2ccc(N3CCC([C@@H](O)c4ccccc4-c4ccc(Cl)cc4)CC3)cc2)cc1S(=O)(=O)C(F)(F)F [AZD4320] + CC(=O)O[C@H]1C(=O)[C@@]2(C)[C@H]([C@H](OC(=O)c3ccccc3)[C@]3(O)C[C@H](OC(=O)[C@H](O)[C@@H](NC(=O)c4ccccc4)c4ccccc4)C(C)=C1C3(C)C)[C@]1(OC(C)=O)CO[C@@H]1C[C@@H]2O [Paclitaxel] (first compound max 1 µM, 7x7, partner max 3 µM)	NCI-H524 (Small Cell Lung Carcinoma)	0.0333
